Measured apparent KD of K4 kissing-loop reporter, listed per entry for reference.
tested on: K4 kissing-loop RNA reporter; assay: apparent KD of K4 kissing-loop reporter; higher = weaker reporter binding; conditions: Eterna round: R107; input ligand: tryptophan 2.4 mM

item-sequence	apparent KD of K4 kissing-loop reporter
ACCUACCAUUAGUGAUGUUAAUGGACGGAAGGAGCGCAGAUAUCUGCAGGUAGGUCGCCGAAGGCUAGACAUUGUCUAGCCAUUA [AK1.1 SS Arginine A]	183 nM

Now consider a different sequence.
Field request: apparent KD of K4 kissing-loop reporter | item: AGAGAUAUAUGAGGAUAUGAGAUAGUUAAUGAGUGAGUUAUAGUGUAGUUUGGUUAGUGAUGUUAUUUAGAAGGCGUGAGUGAUG [reefmullin]
83.3 nM

====

tested on: MS2 coat protein; assay: apparent KD of MS2 coat protein; designed switch direction (-1 OFF switch, 1 ON switch): -1; higher = weaker reporter binding; conditions: input ligand: none
Could you label it yes (1) if measured apparent KD of MS2 coat protein is 20 nM or higher, and no (0) otherwise?

Some entries whose results are on file:
item-sequence	label-class
CAUUGUUAUCGAGGAUAUCGUAUUGAGAUACUACGAGAAGGCGGAAUAAACAUGAGGAUCACCCAUGUGAGACGGAUGCUUGUG [Ex NG1 #34] (Eterna round: R96, puzzle: Exclusion NG 1)	yes (1)
CAAAAGCUAGGAUAUACAUGAGGAUCACCCAUGUCGCACUCUAGACACGCCAUACAUAGUAGAAGGAGCAAUCU [EX3 B.18] (Eterna round: R97, puzzle: Exclusion 3)	no (0)
GUCACAUGGACAUAGGAUCACAUGAGGAUCACCCAUGUGACUAACAAGCUUUUUGUUCGUCUUAUGUCCAUGUGAAG [Stov1/15-B3] (Eterna round: R97, puzzle: Sensor, turn-off variant 1)	no (0)

Check if apparent KD of MS2 coat protein >= 20 nM (inclusive). Item: AUUGUUUAUGUAGGAUAUGCCUGGCGUGCCUUUGCAGAAGGACAUGAGGAUCACCCAUGUAACAUGAGGCUCACCCAUGUCGCU [salish99_ExNG1_r04_112] (Eterna round: R96, puzzle: Exclusion NG 1)
yes (1)

Record: CGGUGUAACAGAGGAUAUGAGCGCAACUGACGAUCAGAAGGCUGACAUGAGGAUCACCCAUGUGAUUUCUCAAUAUUAUACAUC [Prohibition 89 - Jieux - Exclusion NG 1] (Eterna round: R96, puzzle: Exclusion NG 1)
yes (1)

====

tested on: MS2 coat protein; test: apparent KD of MS2 coat protein; higher = weaker reporter binding; details: Eterna round: R107; input ligand: theophylline 20 uM
measured-attribute: apparent KD of MS2 coat protein (nM)
Quick note: give the figure in nM, leave out the unit.

item-sequence	unit	recorded-value
CGAAUAUAGACGGCCGCCACUCUACAAACAUGAGGAUCACCCAUGUUCACAUAGAGGAAACUCAUGAGGACCGGGUCAUAGGCUU [#20 Same State - Tryptophan B]	nM	32.5
CCGUCCCUCGGAAGGAGCGGCGCAAUGUAAGGGACCUUUUAUACAUGAGGAUCACCCAUGUGCCAGGUAGGUCGCCGAGAGCGUG [Erxeatge]	nM	74
CUAUAAAUAGCGGCCGCCACUUACUCAUGAGGUAACAACAUGAGGAUCACCCAUGUUUGAGGAUCAAGGACCGGGCUAUUUAUAG [AstrosSSTryB#8]	nM	32.8

We next turn to a different sequence, shown below.
Provide the documented apparent KD of MS2 coat protein with MS2 coat protein as the system for AUAGUCUAGAGUGAUACCAGACUACAUGAGGAUCACCCAUGUAUCUUUUGGUUAUCAUGUGUCCCUUGGCAGCACGCAUGUAUAG [JR_ExcTheophyB_Sub013]
12.4

====

system: K4 kissing-loop RNA reporter; test: apparent KD of K4 kissing-loop reporter; higher = weaker reporter binding; conditions: Eterna round: R107; input ligand: none
Each entry gets False if its apparent KD of K4 kissing-loop reporter stays under 200 nM, and True if its apparent KD of K4 kissing-loop reporter is 200 nM or above.

# example entries with known answers
item-sequence	label-class
ACAGUUGCUAGUGAUACCAGACUAGCACUACGUAGUAUGUCAAGUGAUGUUUGACAACUAGUCCCUUGGCAGCGCGAUACGACUG [#12 K4 Theophylline B Same State]	False
UUUAAAUAUAGUGAUGUUAUAUAACAAUGACGAGGACCGGUACGGCCGCCACUCGAGAGAGAUAAUGAUAAAAUACAUAAUUUUC [AstrosSSTrypA#2]	True
AGGAUGUAGUGAUGUUAUAUAAGAAGUAAACGAGGACCGGUACGGCCGCCACUCGAAGCGGCUACUAGCGUGUUGCGAGGUGCGC [ExTryptoA.Cd]	True

In plain terms: is recorded apparent KD of K4 kissing-loop reporter at least 200 nM for UGUGUUGUUGUGAUGUUUGGUGUUGUAGGGCAGGAUAUCGUAGAGGCGAGAAGGGCUUGUGGGCGGUAUGAGUGAUGUUUGUAGG [cfiuxmullin] ?
False

One more sequence: UGACUGGACUGAAGGAGCGGGCGAGACAAAGUCUCGAACUCUUAGUGAUGUUAGGAAAUAACCCAGGUAGGUCGCAGUCUAGUCU
False

Same again, this time with GUUGAUCAUGGAAGGAGCGCCCAUUGUCGACACGAGUGAUGUUCGUGUCGUUAAUUAUGAGGGCAGGUAGGUCGCCGUGUGCUUU [Soqugebi]
False

====

tested on: K4 kissing-loop RNA reporter; assay: apparent KD of K4 kissing-loop reporter; higher = weaker reporter binding; conditions: Eterna round: R107; input ligand: FMN 200 uM;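 note: bound reporter read as fluorescence of individual clusters on recovered sequencing chips by microscopy, with normalized cluster intensities fitted with a binding model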
# cutoff 0.2 µM applies to apparent KD of K4 kissing-loop reporter; >= gives 1, < gives 0

Could you verify whether the entry AAGCAGUCACUCGAAAUCAUCAAAGAUGAACGAGGACCGGUACGGCCGCCACUCGGAGUGAUGUUCCGAAGACUGCAAAAUAAAA [MatMod 2 - Jieux - Exclusion - Tryptophan A] shows apparent KD of K4 kissing-loop reporter of no less than 0.2 µM?
1

And then AAUACCUGAGUGAUGUUCAGGGAAUCAGAAGGAGCGUCAAUUAUGACAGGUAGGUCGCUGAAUACAUGUGUGUAUACACAUGUAC [Arg A SS t4] , what is it?
1

Also AGUAGUUGGGCGGCCGCCACUGGAACAGCUUUGUCAAAGACAGAGCACUAGAGUGAUGUUCUAGCUAGGACCGGGUCCAACUACA [whbob_SS_Tryp_B_t17] , if possible.
1

# iterate: AUUUAAUGUAUAGAUUAUAUACAUAAUUCAGAGGAUAUGCGAAGAAGCAGAAGGCUGGUUGCAGUGAUGUUGCUUUUAUAAUUUA [JR_SSFMNA_Sub009]
0

How about this sequence: CUCGAGUGAUGUUCGAUUAUUUAUACAGAUACCAGUGAAUUUUAACACCCUUGGCAGCUGGUUGUAUCAUUGUUUUUUACAAAAG [JR_ExcTheophyA_Sub007]
0

====

tested on: MS2 coat protein; assay: apparent KD of MS2 coat protein; designed switch direction (-1 OFF switch, 1 ON switch): -1; higher = weaker reporter binding; settings: Eterna round: R95; input ligand: none
measured-attribute: apparent KD of MS2 coat protein (nM)
Output spec: scalar in nM, unitless text.

Please review the entries below; each comes with its answer.
item-sequence	unit	apparent KD of MS2 coat protein
GGCAUAAUGUAGGAUAUCGUAAUGGAAACAUUACGAGAAGGGCAAACAUGAGGAUCACCCAUGUUCCUUAAGCC [Mat - Exclusion 6 - Eli Mod - D70] (puzzle: Exclusion 6)	nM	15.4
GGAAAGCAAGGAUAUACAAGUAAACGAUGGAAAGUAGAGAGACAUGAGGAUCACCCAUGUAGAAGGUGCGAGAG [JR_Exclu2_Sub036] (puzzle: Exclusion 2)	nM	22.2

Using the record for GUGAUGUAGCACAAUAAGUUUUUUGCCGUCUUAGGUCCAACAUGAGGAUCACCCAUGUACGUCUACAUGCACUUUAA [Veveuslabe] (puzzle: Sensor v3, turn-off variant 2) , report its apparent KD of MS2 coat protein.
81.2

====

Form field: apparent KD of MS2 coat protein (one value per entry).
tested on: MS2 coat protein; test: apparent KD of MS2 coat protein; higher = weaker reporter binding; settings: Eterna round: R107; input ligand: theophylline 2 mM
Give just the number in nM; leave the unit off.

Sample records with apparent KD of MS2 coat protein:
item-sequence	recorded-value
GUGUCCUAGUCGGCCGCCACUGGUACGAAUACCUUCACCCGUGUGCACAUGAGGAUCACCCAUGUCAGGACCGGGACUAGGGUGU [SSTryp B #24]	14.1
AGCACAUGAGGAUCACCCAUGUGUGGGUACCGAGGACCGGUACGGCCGCCACUCGCAGGACAUGAGGAUCACCCAUGUGCCGCCG [SSTA DOUBLE!!! :-D #7]	41.2
GCUACGUGCUGAAGGAGCGUGGACCUAAACAUGAGGAUCACCCAUGUCGUGUAGGCAGAUUCACAGGUAGGUCGCAGCACGUAGC [SSAB NP+V+V2 #14 Same Structure]	120
UGUAUGGACUGAAGGAGCGCCUCAAAAUAGCUUGAGGAUCACCCAAGUAAGGCGAAAGCCGGGCAGGUAGGUCGCAGUCCAUACU [ArgBX 3]	15.2
CGAAUAUAGACGGCCGCCACUCUACAAACAUGAGGAUCACCCAUGUUCACAUAGAGGAAACUCAUGAGGACCGGGUCAUAGGCUU [#20 Same State - Tryptophan B]	27.4

With those in mind, consider the next sequence.
# query: apparent KD of MS2 coat protein of entry GUUGAGACCUCGGCCGCCACUCGCCAUGAGGAUCUCCCAUGUAACAUGAGGAUCACCCAUGUACUGAGGACCGGGAGGUCCUUGU [Same State Tryptophan B GF 16]
15.5

These data points were gathered from the supplement of paper PMC9170038.
